System: rape (Brassica napus)
test: Test B pre-/postemergence
Type: in vivo
run-parameters: Rate 125 g/ha, Preemergence
Some molecules, each annotated with its measured Plant response rating, Rape.

# chemical-smiles, Plant response rating, Rape
data = [
    ("Cc1cnc(-n2ccc(C(F)(F)F)n2)nc1C(=O)c1cccc(C(F)(F)F)c1", 7),
    ("Cc1cnc(-n2cnc(C(F)(F)F)n2)nc1C(=O)c1cccc(C(F)(F)F)c1", 9),
    ("Cc1cnc(-n2cnc(C(F)(F)F)n2)nc1C(=O)c1cccc(OC(F)(F)F)c1", 4),
    ("Cc1cnc(-c2ccc(C(F)(F)F)cc2)nc1C(=O)c1cccc(OC(F)(F)F)c1", 3),
    ("Cc1cnc(-n2ccc(C(F)(F)C(F)(F)F)n2)nc1C(=O)c1cccc(C(F)(F)F)c1", 3),
    ("O=C(c1cccc(C(F)(F)F)c1)c1ccnc(-c2ccc(F)cc2F)n1", 0),
    ("CCc1cnc(-n2ccc(C(F)(F)F)n2)nc1C(=O)c1cccc(C#N)c1", 5),
    ("O=C(c1cccc(C(F)(F)F)c1)c1ccnc(-c2ccc(C(F)(F)F)cc2)n1", 0),
    ("Cc1cnc(-n2cnc(C(F)(F)F)c2)nc1C(=O)c1cccc(OC(F)(F)F)c1", 3),
]

----------
# Lookup of reported Morningglory plant response rating keyed by entry
Test system: momingglory (Ipomoea hederacea)
test: Test B pre-/postemergence
Assay type: in vivo
run-parameters: Rate 125 g/ha, Postemergence

# chemical-smiles, measurement-target, Morningglory plant response rating
records = [
    ("Cc1cnc(-c2ccccc2F)nc1Cc1cccc(C#N)c1", "momingglory (Ipomoea hederacea)", 1),
    ("Cc1cnc(-n2cnc(C(F)(F)F)c2)nc1C(=O)c1cccc(C(F)(F)F)c1", "momingglory (Ipomoea hederacea)", 9),
    ("Cc1cnc(-c2ccc(C(F)(F)F)cc2)nc1C(=O)c1cccc(OC(F)(F)F)c1", "momingglory (Ipomoea hederacea)", 10),
    ("Cc1cnc(-c2ccc(C#N)cc2)nc1Cc1cccc(C#N)c1", "momingglory (Ipomoea hederacea)", 2),
    ("Cc1cnc(-n2cnc(C(F)(F)F)n2)nc1Cc1cccc(C(F)(F)F)c1", "momingglory (Ipomoea hederacea)", 9),
]

----------
Tested on: crabgrass (Digitaria sanguinalis)
test: Test B pre-/postemergence
Format: in vivo
run-parameters: Rate 62 g/ha, Postemergence
readout-type: Plant response rating, Crabgrass

# compound, test-result
data = [
    ("Cc1cnc(-n2cnc(C(F)(F)F)c2)nc1Cc1cccc(C(F)(F)F)c1 [Compound 44]", 3),
    ("Cc1cnc(-n2ccc(C(F)(F)F)n2)nc1Cn1ccc(C(F)(F)F)n1 [Compound 52]", 6),
    ("Cc1cnc(-c2ccc(C(F)(F)F)cc2)nc1Cc1cccc(C(F)(F)F)c1 [Example 1]", 4),
    ("Cc1cnc(-n2cnc(C(F)(F)F)n2)nc1Cc1cccc(C(F)(F)F)c1 [Compound 43]", 7),
    ("Cc1cnc(-c2ccc(C(F)(F)F)cc2)nc1Cn1ccc(C(F)(F)F)n1 [compound 9]", 9),
    ("Cc1cnc(-c2ccc(Cl)cc2)nc1Cn1ccc(C(F)(F)F)n1 [Compound 6]", 5),
    ("Cc1cnc(-c2ccc(C(F)(F)F)cc2)nc1C(C)c1cccc(C(F)(F)F)c1 (racemic) [Compound 19]", 1),
    ("Cc1cnc(-c2ccc(C(F)(F)F)cc2)nc1Cn1ccc(C(F)(F)C(F)(F)F)n1 [Compound 14]", 2),
]

----------
System: bamyardgrass (Echinochloa crus-galli)
test: Test B flood test
Type: in vivo
run-parameters: Rate 125 g/ha, Postemergence section (flood test species)
readout-type: Barnyardgrass plant response rating

# chemical-smiles, readout-type, test-result
records = [
    ("Cc1cnc(-n2ccc(C(F)(F)C(F)(F)F)n2)nc1C(=O)c1cccc(OC(F)(F)F)c1", "Barnyardgrass plant response rating", 2),
    ("Cc1cnc(-n2ccc(C(F)(F)F)n2)nc1Cn1ccc(C(F)(F)F)n1", "Barnyardgrass plant response rating", 6),
    ("CCc1cnc(-n2ccc(C(F)(F)F)n2)nc1C(=O)c1cccc(C(F)(F)F)c1", "Barnyardgrass plant response rating", 2),
    ("Cc1cnc(-n2cnc(C(F)(F)F)c2)nc1C(=O)c1cccc(C(F)(F)F)c1", "Barnyardgrass plant response rating", 3),
]

----------
Item-by-item account of Cocklebur plant response rating
Test system: cocklebur (Xanthium strumarium)
test: Test B pre-/postemergence
Format: in vivo
run-parameters: Rate 125 g/ha, Preemergence

# compound, Cocklebur plant response rating
data = [
    ("Cc1cnc(-c2ccc(C(F)(F)F)cc2)nc1Cc1cccc(C(F)(F)F)c1", 2),
    ("Cc1cnc(-c2ccccc2)nc1Cn1ccc(C(F)(F)F)n1", 0),
    ("Cc1cnc(-c2ccc(Cl)cc2F)nc1Cc1cccc(C(F)(F)F)c1", 0),
    ("CCc1cnc(-n2ccc(C(F)(F)F)n2)nc1Cc1cccc(OC(F)(F)F)c1", 2),
    ("CCc1cnc(-c2ccc(C(F)(F)F)cc2)nc1Cc1cccc(OC(F)(F)F)c1", 0),
    ("Cc1cnc(-c2cccc(C(F)(F)F)c2)nc1Cc1cccc(C#N)c1", 0),
    ("Cc1cnc(-c2ccc(C(F)(F)F)cc2)nc1C(Cl)c1cccc(C(F)(F)F)c1 (racemic)", 0),
    ("Cc1cnc(-c2ccc(C#N)cc2)nc1Cc1cccc(C(F)(F)F)c1", 0),
    ("Cc1cnc(-c2ccccc2F)nc1Cc1cccc(C(F)(F)F)c1", 0),
]

----------
Tested on: momingglory (Ipomoea hederacea)
test: Test B pre-/postemergence
Format: in vivo
Parameters: key: 0 is no effect; 10 is complete control
run-parameters: Rate 250 g/ha, Preemergence
Entries and their Plant response rating, Morningglory
readout-type: Plant response rating, Morningglory

# compound, test-result
data = [
    ("O=C(c1cccc(C(F)(F)F)c1)c1ccnc(-c2ccc(F)cc2F)n1 [Compound 76]", 0),
    ("Cc1cnc(-n2cnc(C(F)(F)F)n2)nc1C(=O)c1cccc(C(F)(F)F)c1 [Compound 67]", 10),
    ("Cc1cnc(-n2cnc(C(F)(F)F)c2)nc1C(=O)c1cccc(C(F)(F)F)c1 [Compound 61]", 10),
    ("COC(c1cccc(C(F)(F)F)c1)c1nc(-c2ccc(C(F)(F)F)cc2)ncc1C (racemic) [Compound 20]", 0),
    ("Cc1cnc(-n2ccc(C(F)(F)C(F)(F)F)n2)nc1C(=O)c1cccc(OC(F)(F)F)c1 [Compound 62]", 4),
    ("Cc1cnc(-c2ccc(Cl)cc2)nc1Cn1ccc(C(F)(F)F)n1 [Compound 6]", 2),
    ("Cc1cnc(-c2ccc(C(F)(F)F)cc2)nc1Cn1cc(I)cn1 [Compound 12]", 10),
    ("COc1cnc(-c2ccc(C(F)(F)F)cc2)nc1Cc1cccc(C(F)(F)F)c1 [Compound 23]", 10),
    ("Cc1cnc(-n2cnc(C(F)(F)F)c2)nc1C(=O)c1cccc(OC(F)(F)F)c1 [Compound 63]", 10),
]

----------
System: duck salad (Heteranthera limosa)
test: Test B flood test
Format: in vivo
Set-up: key: 0 is no effect; 10 is complete control
run-parameters: Rate 250 g/ha, Postemergence (flood test species)
The compounds listed here are annotated with their Plant response rating, Ducksalad.

# compound, Plant response rating, Ducksalad
data = [
    ("Cc1cnc(-c2ccc(Cl)c(Cl)c2)nc1Cc1cccc(C#N)c1", 0),
    ("Cc1cnc(-c2ccc(Cl)c(Cl)c2)nc1Cc1cccc(C(F)(F)F)c1", 2),
    ("Cc1cnc(-c2ccc(Cl)cc2F)nc1Cc1cccc(C#N)c1", 1),
    ("CCc1cnc(-c2ccc(C(F)(F)F)cc2)nc1Cc1cccc(C(F)(F)F)c1", 6),
    ("Cc1cnc(-c2ccc(C(F)(F)F)cc2)nc1Cn1ccc(C#N)n1", 5),
    ("Cc1cnc(-c2ccc(C(F)(F)F)cc2)nc1Cn1ccc(C(F)(F)C(F)(F)F)n1", 2),
    ("Cc1cnc(-c2ccc(Cl)cc2)nc1Cc1cccc(C#N)c1", 2),
    ("Cc1cnc(-c2ccccc2F)nc1Cc1cccc(C(F)(F)F)c1", 0),
    ("COc1cnc(-n2ccc(C(F)(F)F)n2)nc1C(=O)c1cccc(C(F)(F)F)c1", 2),
    ("CCc1cnc(-n2cnc(C(F)(F)F)c2)nc1C(=O)c1cccc(OC(F)(F)F)c1", 2),
    ("CCc1cnc(-n2ccc(C(F)(F)F)n2)nc1C(=O)c1cccc(C#N)c1", 3),
    ("O=C(c1cccc(C(F)(F)F)c1)c1ccnc(-n2ccc(C(F)(F)F)n2)n1", 0),
    ("COC(=O)C(c1cccc(C(F)(F)F)c1)c1nc(-c2ccc(C(F)(F)F)cc2)ncc1C (racemic)", 2),
    ("Cc1cnc(-n2ccc(C(F)(F)C(F)(F)F)n2)nc1C(=O)c1cccc(C(F)(F)F)c1", 2),
]

----------
Test system: morningglory (Ipomoea spp.)
test: Test A pre-/postemergence
Format: in vivo
run-parameters: postemergence SPRAYED TO RUNOFF, Rate 1000 g/ha; 0 to 10 scale
Entries and their measured Plant response rating, Morningglory follow.

# chemical-smiles, Plant response rating, Morningglory
measured = [
    ("Cc1cnc(-c2ccc(Cl)cc2)nc1Cn1ccc(C(F)(F)F)n1", 6),
    ("Cc1cnc(-c2ccc(C(F)(F)F)cc2)nc1Cn1nc(C(F)(F)F)cc1C", 2),
    ("Cc1cnc(-c2ccc(C(F)(F)F)cc2)nc1C(=O)c1ccc(C(F)(F)F)cc1", 10),
    ("Cc1cnc(-c2ccc(C(F)(F)F)cc2)nc1C(=O)c1cccc(C(F)(F)F)c1", 9),
    ("Cc1cnc(-c2ccc(C(F)(F)F)cc2)nc1Cn1cc(I)cn1", 2),
]
